assay: reversal of MRP1-mediated doxorubicin resistance, pilot screen, H69AR cells, doxorubicin co-treatment (AID 601); settings: H69AR cells, CellTiter-Glo, 72 h; compound alone cytotoxicity; at 10 µM
attribute-measured: viability (%)

                            molecule_smiles  readout_units  quantitative_readout
0  CN/C(=C/[N+](=O)[O-])NCCSCc1ccc(CN(C)C)o1              %                  94.2
1  Cc1nnc(SCc2nnc(-c3ccccc3Br)o2)n1-c1ccccc1              %                  90.2
2               c1ccc(-c2n[nH]c3ccccc23)cc1              %                   103
3  CCCCNc1cc(C(=O)O)cc(S(N)(=O)=O)c1Oc1ccccc1              %                   114
4           C/C(Nc1cccc(F)c1)=C(/C#N)C(N)=O              %                  99.2
5  COc1ccc(C(=O)Nc2ccc(S(=O)(=O)Nc3nccnc3OC)cc2)cc1OC              %                  99.6
6                O=C(Nc1ccc(Cl)cc1)N1CCSCC1              %                   107
